Source listed as patent US20210403591A1.

# study_system: T1, recombinant mouse TfR-1, His-tagged (Sino Biological 50741-M07H) (mouse, UniProt Q62351 89-763)
# T1 construct: bought; His-tagged; also called mTfR1; mTfR-1
# T1 sequence (Q62351 89-763 limits assumed, stated change not applied): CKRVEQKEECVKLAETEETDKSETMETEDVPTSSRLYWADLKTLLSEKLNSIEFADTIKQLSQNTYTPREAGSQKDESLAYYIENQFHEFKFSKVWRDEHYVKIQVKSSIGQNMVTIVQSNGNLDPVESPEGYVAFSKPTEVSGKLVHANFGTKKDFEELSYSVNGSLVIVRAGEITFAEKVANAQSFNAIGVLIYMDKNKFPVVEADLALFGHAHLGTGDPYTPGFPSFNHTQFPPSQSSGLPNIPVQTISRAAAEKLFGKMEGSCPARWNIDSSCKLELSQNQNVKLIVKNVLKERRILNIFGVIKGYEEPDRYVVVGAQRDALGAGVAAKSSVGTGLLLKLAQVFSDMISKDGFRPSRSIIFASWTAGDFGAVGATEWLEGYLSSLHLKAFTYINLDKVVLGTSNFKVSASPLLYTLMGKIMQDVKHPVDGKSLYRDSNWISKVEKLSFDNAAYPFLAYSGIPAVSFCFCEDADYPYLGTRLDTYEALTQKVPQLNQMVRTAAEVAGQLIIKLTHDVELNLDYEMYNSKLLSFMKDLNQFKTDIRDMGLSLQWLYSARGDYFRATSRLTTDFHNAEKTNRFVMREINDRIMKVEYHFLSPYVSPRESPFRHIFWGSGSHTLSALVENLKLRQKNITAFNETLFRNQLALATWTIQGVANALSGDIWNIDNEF
# assay_overview: SPR, His-captured TfR1
# Protocol: Detailed binding kinetic analyses were performed to gain a better understanding of the relationship between affinity and brain penetration of the Clone C variants. Biacore surface plasmon resonance (SPR) analysis using immobilised mouse and human TfR-1 was performed for selected clones (Table 2). Binding kinetics of VNAR-Fcs was determined by surface plasmon resonance (Biacore T200, GE Healthcare). […] Sensorgrams were fitted and kinetic constants were determined using Biacore T200 Evaluation software. […]
measured_metric: Kd (nM)

Per the record, Clone C variant 8 VNAR-hFc (Fc fusion, not shown: a dimerising Fc or GST) ARVDQTPQTITKETGESLTINCVLRDSNCALSSTYWYRKKSGSTNEENISKGGRYVETVNSGSKSFSLRINDLTVEDSGTYRCNVVQWPSYNNYFWCDVYGDGTAVTVN has Kd of 6.81

(I) Clone C variant 17 VNAR-hFc (Fc fusion, not shown: a dimerising Fc or GST) ARVDQTPQTITKETGESLTINCVLRDSNCALSSTYWYRKKSGSTNEENISKGGRYVETVNSGSKSFSLRINDLTVEDSGTYRCNVVQYPQYDNYFWCDVYGDGTAVTVN
(II) Clone C variant 9 VNAR-hFc (Fc fusion, not shown: a dimerising Fc or GST) ARVDQTPQTITKETGESLTINCVLRDSNCALSSTYWYRKKSGSTNEENISKGGRYVETVNSGSKSFSLRINDLTVEDSGTYRCNVVQWPTLSSPFWCDVYGDGTAVTVN
(III) Clone C variant 1 VNAR-hFc (Fc fusion, not shown: a dimerising Fc or GST) ARVDQTPQTITKETGESLTINCVLRDSNCALSSTYWYRKKSGSTNEENISKGGRYVETVNSGSKSFSLRINDLTVEDSGTYRCNVAQRPSYNNYFWCDVYGDGTAVTVN
-- ask Rank items: key Kd, increasing. I'd appreciate it if you listed the labels in the requested order.
-- reply I, III, II
